Target: PAR1 (Homo sapiens, UniProt P25116)
Construct: endogenous in cells
Sequence (P25116 22-425): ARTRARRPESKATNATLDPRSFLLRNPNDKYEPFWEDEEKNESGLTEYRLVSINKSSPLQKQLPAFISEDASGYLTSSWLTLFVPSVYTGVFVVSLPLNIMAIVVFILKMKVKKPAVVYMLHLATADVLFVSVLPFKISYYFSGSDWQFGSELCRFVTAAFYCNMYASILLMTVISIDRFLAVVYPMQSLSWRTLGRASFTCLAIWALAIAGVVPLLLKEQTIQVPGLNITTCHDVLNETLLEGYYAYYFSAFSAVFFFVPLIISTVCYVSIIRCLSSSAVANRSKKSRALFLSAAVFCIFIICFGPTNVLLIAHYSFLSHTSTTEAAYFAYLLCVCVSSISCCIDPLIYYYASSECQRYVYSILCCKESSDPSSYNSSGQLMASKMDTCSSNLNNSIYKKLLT
Experiment: Inhibition of PAR1-mediated platelet aggregation induced by TRAP (thrombin receptor-activating peptide), 96-well format
Conditions: washed platelets from healthy volunteers; TRAP as agonist; AUC of kinetics at 650 nm, 37° C., 20 minutes
log10 IC50 by entry:
A value of 2 here means IC50 of 100 in nM, since values are log10.

Reference set (5 entries):
- compound: "CC(C)(CN)CNC(=O)c1n[nH]c2c1C(/C=C/c1ccc(-c3cccc(F)c3)cn1)C1=C(CC3(CCCC3)CC1=O)N2 (stereo not shown) [Example 50]"
  log10 IC50: 2.96
- compound: "O=C1CC2(CCCC2)CC2=C1C(/C=C/c1ccc(-c3cccc(F)c3)cn1)c1c(C(=O)NC[C@H]3C[C@@H](O)C3)n[nH]c1N2 (stereo partly shown) [Example 38]"
  log10 IC50: 2.91
- compound: "COC(C)(C)CNC(=O)c1n[nH]c2c1C(C=Cc1ccc(-c3cccc(F)c3)cn1)C1=C(CC3(CCCC3)CC1=O)N2 (stereo not shown) [Example 39]"
  log10 IC50: 2.65
- compound: "CC1(CNC(=O)c2n[nH]c3c2C(/C=C/c2ccc(-c4cccc(F)c4)cn2)C2=C(CC4(CCCC4)CC2=O)N3)COC1 (stereo not shown) [Example 54]"
  log10 IC50: 2.92
- compound: "COCCNC(=O)c1n[nH]c2c1C(/C=C/c1ccc(-c3cccc(F)c3)cn1)C1=C(CC3(CCC3)CC1=O)N2 (stereo not shown) [Example 46]"
  log10 IC50: 3.18

Entry COCCNC(=O)c1n[nH]c2c1C(/C=C/c1ccc(-c3cccc(F)c3)cn1)C1=C(CC3(CCCC3)CC1=O)N2 (stereo not shown) [Example 43] has what log10 IC50?
3.08

Entry CC(C)(CO)CNC(=O)c1n[nH]c2c1C(C=Cc1ccc(-c3cccc(F)c3)cn1)C1=C(CC3(CCC3)CC1=O)N2 (stereo not shown) [Example 36] has what log10 IC50?
2.66

Entry CN1C2=C(C(=O)CC3(CCCC3)C2)C(/C=C/c2ccc(-c3cccc(F)c3)cn2)c2c(C(=O)NCC(C)(C)C)n[nH]c21 (stereo not shown) [Example 37] has what log10 IC50?
2.85

Entry CC1CC(=O)C2=C(C1)Nc1[nH]nc(C(=O)NCC3CC3)c1C2/C=C/c1ccc(-c2cccc(F)c2)cn1 (single isomer, unassigned) [diastereomer 1 from example 13] has what log10 IC50?
3.71

Entry CC(C)C1CC(=O)C2=C(C1)Nc1[nH]nc(C(=O)NCC3CC3)c1C2/C=C/c1ccc(-c2cccc(F)c2)cn1 (mixture of isomers) [Example 10] has what log10 IC50?
3.14

Entry CC(C)(C)CNC(=O)c1n[nH]c2c1C(/C=C/c1ccc(-c3cccc(F)c3)cn1)C1=C(CC(C)(C)CC1=O)N2 (stereo not shown) [Example 15] has what log10 IC50?
3.63

Entry O=C1CC2(CCCC2)CC2=C1C(/C=C/c1ccc(-c3cccc(F)c3)cn1)c1c(C(=O)NC3CCCC3)n[nH]c1N2 (stereo not shown) [Example 47] has what log10 IC50?
3.15
